Items are presented alongside their recorded Ki.
# target-or-test-system: HIV-1 protease (Human immunodeficiency virus type 1 group M subtype B)
# measurement-notes: HIV-1 protease enzyme inhibition, assay developed by Toth and Marshall
# Format: biochemical
Note: unit nM is implicit; provide only the numeric part.

Some compounds with recorded Ki:
[[record]]
compound = "COc1ccc(S(=O)(=O)N(CC(C)C)C[C@@H](O)[C@H](Cc2ccccc2)NC(=O)O[C@H]2CCO[C@H]3OC[C@H](O)[C@H]32)cc1 [Inhibitor 30f]"
test_value = 0.06

[[record]]
compound = "CO[C@H]1CO[C@@H]2OCC[C@H](OC(=O)N[C@@H](Cc3ccccc3)[C@H](O)CN(CC(C)C)S(=O)(=O)c3ccc(N)cc3)[C@@H]21 [Inhibitor 30c]"
test_value = 0.037

[[record]]
compound = "COc1ccc(S(=O)(=O)N(CC(C)C)C[C@@H](O)[C@H](Cc2ccccc2)NC(=O)O[C@H]2CCO[C@H]3OC[C@H](OCc4ccccc4)[C@H]32)cc1 [Inhibitor 30e]"
test_value = 0.012

[[record]]
compound = "COc1ccc(S(=O)(=O)N(CC(C)C)C[C@@H](O)[C@H](Cc2ccccc2)NC(=O)O[C@H]2CCO[C@H]3OC[C@H](OC)[C@H]32)cc1 [Inhibitor 30b]"
test_value = 0.0045


Exam item: For the compound CCO[C@H]1CO[C@@H]2OCC[C@H](OC(=O)N[C@@H](Cc3ccccc3)[C@H](O)CN(CC(C)C)S(=O)(=O)c3ccc(OC)cc3)[C@@H]21 [Inhibitor 30d] , what Ki is on record?
Marked response: 0.0033
